Where do these numbers come from? They come from patent US20240252641A1.

# experimentalSystem: T1, CD70 on cells (CHO-CD70, JVM-3, U266, Raji, THP-1, T cells) (human, UniProt P32970 1-193)
# T1 construct: whole, on cells; also called cell-surface CD70
# T1 sequence (looked up): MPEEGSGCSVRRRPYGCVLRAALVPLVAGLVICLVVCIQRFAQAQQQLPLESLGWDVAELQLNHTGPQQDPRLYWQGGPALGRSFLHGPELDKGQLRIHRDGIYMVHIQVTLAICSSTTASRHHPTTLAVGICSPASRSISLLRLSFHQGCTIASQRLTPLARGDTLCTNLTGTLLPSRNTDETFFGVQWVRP
# assayDetails: on U266 cells
reportedEndpoint: cell binding

Solved entries (count: 2):
binder	cell binding
9A1 (antibody, V domains shown, alloy mouse hybridoma antibody; also called 9A1H6) VH: QVQLVQSGAEVKKPGASVKVSCKASGYSFTGYYMHWVRQAPGQGLEWMGWINPKSGGTSYAQQFQGRVTMTRDTSMSTVYMELTRLRADDTAVYYCARLYYSGWYGDYWGQGTLVTVSS VL: DIQMTQSPSSLSASVGDRVTITCQASQDINNYLNWYQQKPGKVPNLLIYDASNLETGVPSRFSGSGSGTDFTFTISSLQPEDIATYYCQQYNNPPITFGQGTRLEIK	324000
15F8 (antibody, V domains shown, alloy mouse hybridoma antibody; also called 15F8D8; 15F8D9) VH: EVQLVESGGGVVRPGGSLRLSCAASGFTFDDYGVSWVRQAPGRGLEWVSGINWNGGSTAYADSVKGRFTISRDSAKNSLYLQMDSLRAEDTALYYCAREEGSYYVWYFDIWGRGTLVTVSS VL: DIQMTQSPSSLSASVGDRVTITCRPSQSISNYLNWYQQKPGKAPKVLIYASFILQSGVPSRFGGSGSGTDFTLTISSLQPEDFATYYCQQSYSNPFTFGPGTKVDIK	213000

We next turn to a different binder, shown below.
Report measured cell binding; entry is 4G7 (antibody, V domains shown, alloy mouse hybridoma antibody; also called 4G7E8) VH: QVQLVESGGGVVQPGRSLRLSCAASGFTFSSYGLHWVRQAPGKGLDWVAVIWYDGSNKYYVDSVKGRFTISRDNSMNTLFLQMNSLRAEDTAVYYCARDEAAAAGAFDIWGQGTMVTVSS VL: DIQLTQSPSFLSASVGDRVTITCRASQGISSYLAWYQQKPGKAPKLLIYAASTLQSGVPSRFSGSGSGTEFTLTISSLQPEDFATYYCQQLNYYSITFGQGTRLEIK 310000
